Entry source: paper PMC8185074

- TARGET_ENTITY: HDAC2 (Homo sapiens, UniProt Q92769)
- Construct: purchased Reaction Biology Corporation (assay run by the CRO)
- Sequence (Q92769 whole entry): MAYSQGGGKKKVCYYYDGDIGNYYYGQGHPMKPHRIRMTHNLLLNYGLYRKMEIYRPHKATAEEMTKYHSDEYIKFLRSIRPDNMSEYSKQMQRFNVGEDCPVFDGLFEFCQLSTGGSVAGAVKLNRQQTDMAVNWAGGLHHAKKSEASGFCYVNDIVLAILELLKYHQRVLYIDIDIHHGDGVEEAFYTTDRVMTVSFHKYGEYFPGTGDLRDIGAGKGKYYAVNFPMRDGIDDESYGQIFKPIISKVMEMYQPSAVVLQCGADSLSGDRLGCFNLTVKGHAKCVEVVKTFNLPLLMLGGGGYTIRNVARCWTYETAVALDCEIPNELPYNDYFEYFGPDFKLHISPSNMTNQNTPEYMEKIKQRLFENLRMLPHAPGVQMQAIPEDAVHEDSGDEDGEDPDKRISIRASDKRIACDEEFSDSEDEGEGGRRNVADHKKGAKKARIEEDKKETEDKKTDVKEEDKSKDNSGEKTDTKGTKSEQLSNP
- ASSAY_TEXT: HDAC2 inhibition, full IC50 measurement (Reaction Biology; fluorogenic p53 peptide RHKK(Ac)AMC)
- Type: biochemical
- EXPERIMENTAL_CONDITIONS: Conc. 1.00E-05 M, t1
Peptide text beside a SMILES is read from it.
ENDPOINT: HDAC2 activity raw data (signal)
One number for each entry.

What HDAC2 activity raw data (signal) value was documented for this compound, CCCC[C@H]1NC(=O)[C@H](Cc2ccccc2)NC(=O)[C@H](CCCCCS)NC(=O)[C@@H](CCCNC(=N)N)NC(=O)[C@H](C)NC(=O)[C@@H](CO)NC(=O)[C@@H](C)NC(=O)[C@H](CCCCN)NC1=O [des4.3.1.3, SHA-Phe-dNle-Lys-dAla-dSer-Ala-dArg] (HELM PEPTIDE1{A.[dR].[O=C([C@H](CCCCCS)N[*:1])[*:2]].F.[CCCC[C@@H](N[*:1])C(=O)[*:2]].K.[dA].[dS]}$PEPTIDE1,PEPTIDE1,1:R1-8:R2$$$V2.0) ? 193929

* * *

- TARGET_ENTITY: HDAC6 (Homo sapiens, UniProt Q9UBN7)
- Construct: purchased Reaction Biology Corporation (assay run by the CRO)
- Sequence (Q9UBN7 1-1215): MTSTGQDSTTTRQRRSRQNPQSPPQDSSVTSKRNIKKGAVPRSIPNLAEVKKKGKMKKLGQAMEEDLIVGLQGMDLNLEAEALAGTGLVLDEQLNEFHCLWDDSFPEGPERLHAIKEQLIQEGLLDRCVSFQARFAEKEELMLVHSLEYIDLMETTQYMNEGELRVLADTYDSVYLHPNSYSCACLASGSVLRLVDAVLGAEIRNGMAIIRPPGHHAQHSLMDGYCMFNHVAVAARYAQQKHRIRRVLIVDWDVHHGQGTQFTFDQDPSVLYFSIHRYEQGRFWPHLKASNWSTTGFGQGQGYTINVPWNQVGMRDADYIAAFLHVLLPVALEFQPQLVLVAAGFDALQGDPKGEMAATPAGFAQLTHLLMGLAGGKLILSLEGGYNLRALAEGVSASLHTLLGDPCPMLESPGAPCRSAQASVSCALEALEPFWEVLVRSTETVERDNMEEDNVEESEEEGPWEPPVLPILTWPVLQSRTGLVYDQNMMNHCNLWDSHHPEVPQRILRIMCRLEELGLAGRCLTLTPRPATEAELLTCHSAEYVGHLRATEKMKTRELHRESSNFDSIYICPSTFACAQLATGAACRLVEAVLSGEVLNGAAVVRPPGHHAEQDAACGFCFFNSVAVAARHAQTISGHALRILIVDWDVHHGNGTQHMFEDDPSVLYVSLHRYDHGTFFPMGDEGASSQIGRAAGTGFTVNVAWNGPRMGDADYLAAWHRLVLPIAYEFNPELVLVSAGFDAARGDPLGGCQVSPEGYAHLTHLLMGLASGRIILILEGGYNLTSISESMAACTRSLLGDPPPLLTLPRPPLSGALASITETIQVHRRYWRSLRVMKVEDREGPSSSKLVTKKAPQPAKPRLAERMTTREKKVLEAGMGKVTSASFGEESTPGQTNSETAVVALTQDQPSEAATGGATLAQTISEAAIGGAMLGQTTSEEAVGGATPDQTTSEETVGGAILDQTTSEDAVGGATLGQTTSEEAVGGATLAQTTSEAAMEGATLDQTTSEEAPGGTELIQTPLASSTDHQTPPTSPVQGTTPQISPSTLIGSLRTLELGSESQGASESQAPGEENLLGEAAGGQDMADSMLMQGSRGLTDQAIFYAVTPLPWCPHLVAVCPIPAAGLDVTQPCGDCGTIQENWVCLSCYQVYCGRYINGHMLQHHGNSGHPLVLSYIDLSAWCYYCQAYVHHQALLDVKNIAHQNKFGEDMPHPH
- ASSAY_TEXT: HDAC6 inhibition, full IC50 measurement (Reaction Biology; fluorogenic p53 peptide RHKK(Ac)AMC)
- Type: biochemical
- EXPERIMENTAL_CONDITIONS: Conc. 3.33E-06 M, t1
Peptide text beside a SMILES is read from it.
ENDPOINT: HDAC6 activity raw data (signal)
Give bare numbers.

Reported HDAC6 activity raw data (signal) for C[C@H](O)[C@H]1NC(=O)[C@H](Cc2c[nH]c3ccccc23)NC(=O)[C@H](CCCCCS)NC(=O)[C@H](CCCCN)NC(=O)[C@@H](CC(=O)O)NC(=O)[C@@H](CCCCN)NC(=O)[C@@H](CO)NC(=O)[C@H](CC(N)=O)NC(=O)[C@H](CC(=O)O)NC1=O [des2.1.0, SHA-Trp-dThr-Asp-Asn-dSer-dLys-dAsp-Lys] (HELM PEPTIDE1{D.N.[dS].[dK].[dD].K.[O=C([C@H](CCCCCS)N[*:1])[*:2]].W.[dT]}$PEPTIDE1,PEPTIDE1,1:R1-9:R2$$$V2.0) : what is it? 12962

* * *

- TARGET_ENTITY: HDAC3 (Homo sapiens, UniProt O15379)
- Construct: purchased Reaction Biology Corporation (assay run by the CRO)
- Sequence (O15379 whole entry): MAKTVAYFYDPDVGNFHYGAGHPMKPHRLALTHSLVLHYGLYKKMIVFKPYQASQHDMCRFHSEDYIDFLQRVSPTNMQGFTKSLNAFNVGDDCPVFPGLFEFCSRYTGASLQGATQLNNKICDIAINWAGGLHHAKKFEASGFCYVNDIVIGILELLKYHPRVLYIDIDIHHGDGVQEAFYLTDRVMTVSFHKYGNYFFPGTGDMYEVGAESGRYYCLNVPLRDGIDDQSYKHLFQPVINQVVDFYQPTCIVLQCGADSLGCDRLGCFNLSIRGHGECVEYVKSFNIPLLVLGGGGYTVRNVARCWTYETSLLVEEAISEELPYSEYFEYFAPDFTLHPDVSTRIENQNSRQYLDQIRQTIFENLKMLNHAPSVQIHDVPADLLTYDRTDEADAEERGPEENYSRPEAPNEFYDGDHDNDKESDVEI
- Sequence (Q9Y618 395-489 partner limits assumed): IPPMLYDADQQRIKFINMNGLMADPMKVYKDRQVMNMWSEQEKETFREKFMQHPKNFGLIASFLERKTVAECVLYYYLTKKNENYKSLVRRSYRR
- ASSAY_TEXT: HDAC3 inhibition, full IC50 measurement (Reaction Biology; fluorogenic p53 peptide RHKK(Ac)AMC)
- Type: biochemical
- EXPERIMENTAL_CONDITIONS: Conc. 1.37E-08 M, t1
Peptide text beside a SMILES is read from it.
For each record, write down the corresponding HDAC3 activity raw data (signal).
Numbers only.

Completed entries (count: 3):
C[C@H](O)[C@H]1NC(=O)[C@H](Cc2c[nH]c3ccccc23)NC(=O)[C@H](CCCCCS)NC(=O)[C@H](CCCCN)NC(=O)[C@@H](CC(=O)O)NC(=O)[C@@H](CCCCN)NC(=O)[C@@H](CO)NC(=O)[C@H](CC(N)=O)NC(=O)[C@H](CC(=O)O)NC1=O [des2.1.0, SHA-Trp-dThr-Asp-Asn-dSer-dLys-dAsp-Lys] (HELM PEPTIDE1{D.N.[dS].[dK].[dD].K.[O=C([C@H](CCCCCS)N[*:1])[*:2]].W.[dT]}$PEPTIDE1,PEPTIDE1,1:R1-9:R2$$$V2.0)
1054714
CCCC[C@H]1NC(=O)[C@H](Cc2ccccc2)NC(=O)[C@H](CCCCCS)NC(=O)[C@@H](CCCNC(=N)N)NC(=O)[C@H](CC(=O)O)NC(=O)[C@@H](CO)NC(=O)[C@@H](C)NC(=O)[C@H](CCCCN)NC1=O [des4.3.1, SHA-Phe-dNle-Lys-dAla-dSer-Asp-dArg] (HELM PEPTIDE1{D.[dR].[O=C([C@H](CCCCCS)N[*:1])[*:2]].F.[CCCC[C@@H](N[*:1])C(=O)[*:2]].K.[dA].[dS]}$PEPTIDE1,PEPTIDE1,1:R1-8:R2$$$V2.0)
1250439
CC(C)[C@@H]1NC(=O)[C@H](CCCNC(=N)N)NC(=O)[C@@H](CC(=O)O)NC(=O)[C@H](CO)NC(=O)[C@@H](CO)NC(=O)[C@@H](CCC(=O)O)NC(=O)[C@H](Cc2ccc(O)cc2)NC(=O)[C@H](CCCCCS)NC1=O [des4.2.0, SHA-Tyr-dGlu-dSer-Ser-dAsp-Arg-Val] (HELM PEPTIDE1{R.V.[O=C([C@H](CCCCCS)N[*:1])[*:2]].Y.[dE].[dS].S.[dD]}$PEPTIDE1,PEPTIDE1,1:R1-8:R2$$$V2.0)
1076943

List HDAC3 activity raw data (signal) for every entry below, keeping the order given.
1. N=C(N)NCCC[C@@H]1NC(=O)[C@H](Cc2c[nH]c3ccccc23)NC(=O)[C@H](CC(=O)O)NC(=O)[C@@H](CO)NC(=O)[C@H](Cc2c[nH]c3ccccc23)NC(=O)[C@H](CCCCCS)NC(=O)[C@H](CCC(N)=O)NC1=O [des4.1.0, SHA-Trp-dSer-Asp-Trp-Arg-Gln] (HELM PEPTIDE1{D.W.R.Q.[O=C([C@H](CCCCCS)N[*:1])[*:2]].W.[dS]}$PEPTIDE1,PEPTIDE1,1:R1-7:R2$$$V2.0)
2. NCCCC[C@@H]1NC(=O)[C@@H]2C[C@@H](O)CN2C(=O)[C@H](CC(N)=O)NC(=O)[C@H](CCCCCS)NC(=O)CNC(=O)[C@H](Cc2c[nH]c3ccccc23)NC(=O)[C@@H](CCCCN)NC(=O)[C@H](CCC(N)=O)NC1=O [des1.1.2, SHA-Asn-Hpr-Lys-Gln-dLys-Trp-Gly] (HELM PEPTIDE1{G.[O=C([C@H](CCCCCS)N[*:1])[*:2]].N.[Hyp].K.Q.[dK].W}$PEPTIDE1,PEPTIDE1,1:R1-8:R2$$$V2.0)

1. 878874
2. 1087451
